- assay-protocol: Critical micellar concentration (surface tension / dye solubilization)
- Format: physicochemical
- cond: BA sodium salts in 0.1 M NaCl, 25° C.
measure: CMC (mM)
Numbers only; they are read as mM.

compound: C[C@H](CC(=O)O)[C@H]1CC[C@H]2[C@@H]3[C@H](O)C[C@@H]4C[C@H](O)CC[C@]4(C)[C@H]3CC[C@]12C [Nor-CDCA, 24-nor-CDCA, reference compound]
CMC [mM]: 20

compound: CC[C@H]1[C@@H](O)C2C3CC[C@H]([C@H](C)CC(=O)NCCO)[C@@]3(C)CCC2[C@@]2(C)CC[C@@H](O)C[C@@H]12 (stereo partly drawn)
CMC [mM]: 5

compound: CC[C@H]1[C@@H](O)C2C3CC[C@H]([C@H](C)C[C@@H](CO)C(=O)O)[C@@]3(C)[C@@H](O)CC2[C@@]2(C)CC[C@@H](O)C[C@@H]12 (stereo partly drawn)
CMC [mM]: 5

compound: CC[C@H]1[C@@H](O)C2C3CC[C@H]([C@H](C)CC(F)(F)C(=O)O)[C@@]3(C)CCC2[C@@]2(C)CC[C@@H](O)C[C@@H]12 (stereo partly drawn)
CMC [mM]: 8.5

compound: CC[C@H]1[C@@H](O)C2C3CC[C@H]([C@H](C)CCc4nn[nH]n4)[C@@]3(C)[C@@H](O)CC2[C@@]2(C)CC[C@@H](O)C[C@@H]12 (stereo partly drawn)
CMC [mM]: 5

compound: C[C@H](CCC(=O)NCCS(=O)(=O)O)[C@H]1CC[C@H]2[C@@H]3[C@H](O)C[C@@H]4C[C@H](O)CC[C@]4(C)[C@H]3CC[C@]12C [TCDCA, reference compound]
CMC [mM]: 3

GET /value?item= CC[C@@H]1C2C[C@H](O)CC[C@]2(C)C2CC[C@@]3(C)C(CC[C@@H]3[C@H](C)Cc3nc(=O)o[nH]3)C2[C@@H]1O (stereo partly drawn) &field=CMC returns 10

Short answer for C[C@H](CCC(=O)NCCS(=O)(=O)O)[C@H]1CC[C@H]2[C@@H]3[C@H](O)C[C@@H]4C[C@H](O)CC[C@]4(C)[C@H]3C[C@H](O)[C@]12C [TCA, reference compound] : CMC was 4

response.value for C[C@H](CCC(=O)NCC(=O)O)[C@H]1CC[C@H]2[C@@H]3[C@H](O)C[C@@H]4C[C@H](O)CC[C@]4(C)[C@H]3C[C@H](O)[C@]12C [GCA, reference compound] (field: CMC) = 8

So for CC[C@H]1[C@@H](O)C2C3CC[C@H]([C@H](C)CCC(=O)O)[C@@]3(C)CCC2[C@@]2(C)CC[C@@H](O)C[C@@H]12 (stereo partly drawn) [Ref. Cmpd. B, reference compound] , the logged CMC turned out to be 2.9

The reported CMC of the compound C[C@H](CCC(=O)O)[C@H]1CC[C@H]2[C@@H]3[C@@H](O)C[C@@H]4C[C@H](O)CC[C@]4(C)[C@H]3CC[C@]12C [UDCA, ursodeoxycholic acid, reference compound] was 10

Record CC[C@H]1[C@@H](O)C2C3CC[C@H]([C@H](C)CC(F)(F)C(=O)O)[C@@]3(C)[C@@H](O)CC2[C@@]2(C)CC[C@@H](O)C[C@@H]12 (stereo partly drawn) . Reported CMC: 10

----------
- assayed-system: mTGR5 (Mus musculus, UniProt Q80SS6)
- Sequence (Q80SS6 whole entry): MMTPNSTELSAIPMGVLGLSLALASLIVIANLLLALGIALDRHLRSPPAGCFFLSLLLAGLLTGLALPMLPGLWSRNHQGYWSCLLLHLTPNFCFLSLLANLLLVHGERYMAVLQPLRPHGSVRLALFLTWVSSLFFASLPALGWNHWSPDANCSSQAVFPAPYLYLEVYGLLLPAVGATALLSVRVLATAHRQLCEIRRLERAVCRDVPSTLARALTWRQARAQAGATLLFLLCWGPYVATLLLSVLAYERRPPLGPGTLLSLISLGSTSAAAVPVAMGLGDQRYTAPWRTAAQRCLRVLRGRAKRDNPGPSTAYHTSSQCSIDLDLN
- assay-protocol: TGR5 activity: cAMP in mTGR5 CHO-Pi10 clone 4 cells
- cond: mTGR5 CHO cells, value in parentheses
measure: pEC50
Note: pEC50 values are expressed as the negative base-10 logarithm of concentration in M.

compound: CC[C@H]1[C@@H](O)[C@@H]2[C@H](C[C@H](O)[C@]3(C)[C@@H]([C@H](C)C[C@H](O)C(=O)O)CC[C@@H]23)[C@@]2(C)CC[C@@H](O)C[C@@H]12
pEC50: 6.15
//
compound: CC[C@H]1[C@@H](O)C2C3CC[C@H]([C@H](C)CC(F)(F)C(=O)O)[C@@]3(C)CCC2[C@@]2(C)CC[C@@H](O)C[C@@H]12 (some centres unmarked)
pEC50: 6.22
//
compound: CC[C@H]1[C@@H](O)C2C3CC[C@H]([C@H](C)C[C@H](CO)C(=O)O)[C@@]3(C)[C@@H](O)CC2[C@@]2(C)CC[C@@H](O)C[C@@H]12 (some centres unmarked)
pEC50: 5.47
//
compound: CC[C@H]1[C@@H](O)C2C3CC[C@H]([C@H](C)CCc4noc(=O)[nH]4)[C@@]3(C)CCC2[C@@]2(C)CC[C@@H](O)C[C@@H]12 (some centres unmarked)
pEC50: 6.36
//
compound: CC[C@H]1[C@@H](O)[C@@H]2[C@H](CC[C@]3(C)[C@@H]([C@H](C)CCc4nn[nH]n4)[C@@H](O)C[C@@H]23)[C@@]2(C)CC[C@@H](O)C[C@@H]12
pEC50: 6.10
//
compound: CC[C@H]1[C@@H](O)C2C3CC[C@H]([C@H](C)CCc4nn[nH]n4)[C@@]3(C)[C@@H](O)CC2[C@@]2(C)CC[C@@H](O)C[C@@H]12 (some centres unmarked)
pEC50: 6.08
//
compound: CC[C@H]1[C@@H](O)C2C3CC[C@H]([C@H](C)CCc4nn[nH]n4)[C@@]3(C)CCC2[C@@]2(C)CC[C@@H](O)C[C@@H]12 (some centres unmarked)
pEC50: 6.36
//
compound: CC[C@H]1[C@@H](O)C2C3CC[C@H]([C@H](C)CC(=O)NO)[C@@]3(C)CCC2[C@@]2(C)CC[C@@H](O)C[C@@H]12 (some centres unmarked)
pEC50: 6.30

// assay mTGR5 (Mus musculus, UniProt Q80SS6), entry CC[C@H]1[C@@H](O)C2C3CC[C@H]([C@H](C)CC(=O)NCCOS(=O)(=O)[O-])[C@@]3(C)CCC2[C@@]2(C)CC[C@@H](O)C[C@@H]12.[Na+] (some centres unmarked) , pEC50 value = 7.15

Test item CC[C@@H]1C2C[C@H](O)CC[C@]2(C)C2CC[C@@]3(C)C(CC[C@@H]3[C@H](C)Cc3nc(=O)o[nH]3)C2[C@@H]1O (some centres unmarked) ; mTGR5 (Mus musculus, UniProt Q80SS6); reported pEC50 was 6.05

Known value: mTGR5 (Mus musculus, UniProt Q80SS6) pEC50 of the compound CC[C@H]1[C@@H](O)C2C3CC[C@H]([C@H](C)CCc4noc(=O)[nH]4)[C@@]3(C)[C@@H](O)CC2[C@@]2(C)CC[C@@H](O)C[C@@H]12 (some centres unmarked) equals 5.85

----------
- assayed-system: human glutathione transferase-tagged FXR-LBD (Homo sapiens)
- Construct: human glutathione transferase-tagged FXR-LBD (Life Technologies, USA)
- Sequence (Q96RI1 262-486 limits assumed): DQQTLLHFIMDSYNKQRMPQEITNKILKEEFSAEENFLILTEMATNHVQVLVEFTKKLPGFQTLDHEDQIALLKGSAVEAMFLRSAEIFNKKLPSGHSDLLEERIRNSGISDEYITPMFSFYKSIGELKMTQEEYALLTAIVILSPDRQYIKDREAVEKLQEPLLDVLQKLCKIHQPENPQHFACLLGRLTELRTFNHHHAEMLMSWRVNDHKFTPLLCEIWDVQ
- assay-protocol: FXR AlphaScreen coactivator recruitment assay (human)
- cond: human FXR-LBD, AlphaScreen; read-out: hFXR EC50
measure: EC50 (µM)
Report only the number, with the unit µM understood.

// returns EC50 for CC[C@H]1[C@@H](O)C2C3CC[C@H]([C@H](C)CCc4nnc(NS(C)(=O)=O)o4)[C@@]3(C)CCC2[C@@]2(C)CC[C@@H](O)C[C@@H]12 (stereo partly drawn) [Compound 23] with human glutathione transferase-tagged FXR-LBD (Homo sapiens); value = 0.1

human glutathione transferase-tagged FXR-LBD (Homo sapiens) EC50 of CC[C@H]1[C@@H](O)C2C3CC[C@H]([C@H](C)CC(F)(F)C(=O)O)[C@@]3(C)CCC2[C@@]2(C)CC[C@@H](O)C[C@@H]12 (stereo partly drawn) [Compound 10] is 0.2

For CC[C@H]1[C@@H](O)[C@@H]2[C@H](CC[C@]3(C)[C@@H]([C@H](C)CCc4nc(=O)o[nH]4)[C@@H](O)C[C@@H]23)[C@@]2(C)CC[C@@H](O)C[C@@H]12 [Compound 18] on human glutathione transferase-tagged FXR-LBD (Homo sapiens), measured EC50 was 0.55

----------
- assayed-system: bovine serum albumin (Bos taurus, UniProt P02769)
- Sequence (P02769 25-607): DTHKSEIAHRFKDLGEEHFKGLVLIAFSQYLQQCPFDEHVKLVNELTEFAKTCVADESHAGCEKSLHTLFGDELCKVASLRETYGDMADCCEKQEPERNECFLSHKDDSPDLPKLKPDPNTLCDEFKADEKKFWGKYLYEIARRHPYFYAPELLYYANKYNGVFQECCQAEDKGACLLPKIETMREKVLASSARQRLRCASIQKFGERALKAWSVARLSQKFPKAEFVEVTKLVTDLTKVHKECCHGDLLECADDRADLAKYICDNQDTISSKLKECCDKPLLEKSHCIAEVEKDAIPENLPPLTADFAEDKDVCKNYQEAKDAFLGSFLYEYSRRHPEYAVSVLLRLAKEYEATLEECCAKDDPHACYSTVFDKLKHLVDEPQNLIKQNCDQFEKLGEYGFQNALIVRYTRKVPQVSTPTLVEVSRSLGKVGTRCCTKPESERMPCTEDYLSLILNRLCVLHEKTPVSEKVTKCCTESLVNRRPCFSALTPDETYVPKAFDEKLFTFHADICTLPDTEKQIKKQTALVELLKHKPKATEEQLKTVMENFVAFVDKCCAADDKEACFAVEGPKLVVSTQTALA
- assay-protocol: Albumin binding by equilibrium dialysis
- Format: in vitro ADME
- cond: 5% bovine serum albumin saline solution, 25° C.
Below, each entry is listed with its recorded Albumin binding (%).
Please reply with the bare figure in % and do not write the unit itself.

Some solved entries appear below for comparison.
compound: CC[C@H]1[C@@H](O)[C@@H]2[C@H](C[C@H](O)[C@]3(C)[C@@H]([C@H](C)C[C@H](F)C(=O)O)CC[C@@H]23)[C@@]2(C)CC[C@@H](O)C[C@@H]12 [Compound 8]
unit-spec: %
Albumin binding (%): 84

compound: C[C@H](CCC(=O)NCCS(=O)(=O)O)[C@H]1CC[C@H]2[C@@H]3[C@H](O)C[C@@H]4C[C@H](O)CC[C@]4(C)[C@H]3CC[C@]12C [TCDCA, reference compound]
unit-spec: %
Albumin binding (%): 70

compound: C[C@H](CCC(=O)NCCS(=O)(=O)O)[C@H]1CC[C@H]2[C@@H]3[C@H](O)C[C@@H]4C[C@H](O)CC[C@]4(C)[C@H]3C[C@H](O)[C@]12C [TCA, reference compound]
unit-spec: %
Albumin binding (%): 42

compound: CC[C@H]1[C@@H](O)C2C3CC[C@H]([C@H](C)CCc4nn[nH]n4)[C@@]3(C)CCC2[C@@]2(C)CC[C@@H](O)C[C@@H]12 (some centres unmarked) [Compound 15]
unit-spec: %
Albumin binding (%): 76

Next up:
Record CC[C@@H]1C2C[C@H](O)CC[C@]2(C)C2CC[C@@]3(C)C(CC[C@@H]3[C@H](C)Cc3nc(=O)o[nH]3)C2[C@@H]1O (some centres unmarked) [Compound 14] , field Albumin binding (%): 99

Value source: patent US10800807B2
